# System: complementary oligonucleotide
# protocolSummary: Thermal denaturation of hybrids of ODNs and MGB-ODN conjugates with their complements (Table 6)
# Format: binding
# conditionSet: 2 μM ODN, 1:1 with complement; 140 mM KCl, 10 mM MgCl2, 20 mM HEPES-HCl (pH 7.2); 0.5° C./min
Threshold 40 °C. Tm below it: label 1. Tm at it or above: label 0.

Reference set (6 entries):
10 (DNA GGCAAA; DNA, backbone not given here) [compound 10] : label 1
3 (DNA ATAAAACAGA; DNA, backbone not given here) [compound 3] : label 1
1 (DNA ATAAAACAGAGGTGAG; DNA, backbone not given here) [compound 1] : label 0
9 (DNA CGGGCAAAGGATTTAA; DNA, backbone not given here) [compound 9] : label 0
4 (DNA TAATAACGTTCGGGCA; DNA, backbone not given here) [compound 4] : label 0
5 (DNA ATAACG; DNA, backbone not given here) [compound 5] : label 1

Here's an entry: 11 (DNA CGGCTCTA; DNA, backbone not given here) [compound 11] . Is its Tm below 40 °C?
label 1

Here's an entry: 12 (DNA CGGCTCTAATCTATTA; DNA, backbone not given here) [compound 12] . Is its Tm below 40 °C?
label 0

Here's an entry: 13 (DNA TATTTTAGATAACCTT; DNA, backbone not given here) [compound 13] . Is its Tm below 40 °C?
label 1

Here's an entry: 8 (DNA CGGGCAAA; DNA, backbone not given here) [compound 8] . Is its Tm below 40 °C?
label 1
